measured-target: MMP-3 (Homo sapiens)
Sequence (P08254 100-477): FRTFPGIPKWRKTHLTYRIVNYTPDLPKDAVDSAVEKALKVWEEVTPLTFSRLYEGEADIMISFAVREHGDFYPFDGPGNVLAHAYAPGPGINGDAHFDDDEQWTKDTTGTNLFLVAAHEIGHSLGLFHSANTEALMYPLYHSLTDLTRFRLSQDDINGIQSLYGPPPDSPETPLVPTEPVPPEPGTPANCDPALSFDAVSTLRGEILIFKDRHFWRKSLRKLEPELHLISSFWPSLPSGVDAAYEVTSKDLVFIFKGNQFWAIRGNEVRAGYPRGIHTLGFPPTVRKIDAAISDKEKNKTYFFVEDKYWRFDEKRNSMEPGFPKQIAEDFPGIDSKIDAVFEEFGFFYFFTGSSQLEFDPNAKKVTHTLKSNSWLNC
experiment: Inhibition of matrix metalloproteinase, MMP-3
Type: biochemical
cond: Table 3 Matrix metalloproteinase
measurement-type: IC50 (µM)
Report the value in µM with no unit label.

# input For the molecule shown here, COc1cc(-c2cc(=O)c3c(O)cc(O)c(CC=C(C)C)c3o2)ccc1O [FBL-03G] , give the reported IC50.
# output 66.3

====

measured-target: PDGFRB (Homo sapiens)
Construct: catalytic domain constructs for large multi-domain kinases; T7 phage fusion (most assays) or DNA tag for qPCR (HEK-293-made kinases); made in house
Sequence (P09619 600-962 limits assumed): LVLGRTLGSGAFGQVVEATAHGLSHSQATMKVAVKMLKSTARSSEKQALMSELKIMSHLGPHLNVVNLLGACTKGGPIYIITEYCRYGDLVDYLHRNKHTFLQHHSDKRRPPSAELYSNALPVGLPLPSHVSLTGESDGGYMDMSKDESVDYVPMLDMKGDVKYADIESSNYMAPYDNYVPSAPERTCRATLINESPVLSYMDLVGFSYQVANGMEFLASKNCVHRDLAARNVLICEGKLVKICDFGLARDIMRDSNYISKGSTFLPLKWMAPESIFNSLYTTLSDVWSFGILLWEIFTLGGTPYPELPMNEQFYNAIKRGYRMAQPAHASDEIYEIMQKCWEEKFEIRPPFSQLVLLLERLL
experiment: Kinase competition binding assay, PDGFRB
cond: Table 1 kinase panel
Entries and their measured IC50 follow.
Report the value in nM with no unit label.

Some compounds with recorded IC50:
INSERT INTO assay_data (compound, endpoint_unit, recorded_number) VALUES
  ('COc1cc(-c2cc(=O)c3c(O)c(CC=C(C)C)c(O)cc3o2)ccc1O [FBL-03B]', 'nM', 1160),
  ('COc1cc(-c2cc(=O)c3c(O)c(C/C=C(\C)CCC=C(C)C)c(O)cc3o2)ccc1O [FBL-03A]', 'nM', 330);

Turning to the following compound.
# input Which measured IC50 belongs to COc1cc(-c2cc(=O)c3c(O)cc(O)c(CC=C(C)C)c3o2)ccc1O [FBL-03G] , tested on PDGFRB (Homo sapiens)?
# output 3310

====

measured-target: FGR (Homo sapiens, UniProt P09769)
Construct: made in house
Sequence (P09769 whole entry): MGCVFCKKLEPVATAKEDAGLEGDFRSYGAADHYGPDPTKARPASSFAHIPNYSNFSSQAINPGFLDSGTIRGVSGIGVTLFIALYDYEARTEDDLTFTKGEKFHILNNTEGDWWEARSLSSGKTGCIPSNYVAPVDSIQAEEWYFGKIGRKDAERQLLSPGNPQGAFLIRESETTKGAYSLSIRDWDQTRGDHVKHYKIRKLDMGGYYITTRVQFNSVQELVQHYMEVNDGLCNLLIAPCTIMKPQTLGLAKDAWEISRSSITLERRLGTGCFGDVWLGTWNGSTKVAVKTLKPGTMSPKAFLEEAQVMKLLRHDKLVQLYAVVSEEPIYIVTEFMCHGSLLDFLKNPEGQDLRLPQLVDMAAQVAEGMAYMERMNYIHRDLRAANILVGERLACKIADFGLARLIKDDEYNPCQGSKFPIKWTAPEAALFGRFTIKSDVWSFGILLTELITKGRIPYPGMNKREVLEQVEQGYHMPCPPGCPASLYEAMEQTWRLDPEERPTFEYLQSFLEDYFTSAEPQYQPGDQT
experiment: Kinase competition binding assay, FGR
cond: Table 1 kinase panel
measurement-type: IC50 (nM)
Report the value in nM with no unit label.

INSERT INTO measurements (molecule, measurement_type, recorded_number) VALUES
  ('COc1cc(-c2cc(=O)c3c(O)c(CC=C(C)C)c(O)cc3o2)ccc1O [FBL-03B]', 'IC50', 224);

Turning to the following molecule.
# input For the molecule shown here, COc1cc(-c2cc(=O)c3c(O)cc(O)c(CC=C(C)C)c3o2)ccc1O [FBL-03G] , give the reported IC50.
# output 880

====

measured-target: DRAK2 (Homo sapiens, UniProt O94768)
Construct: made in house
Sequence (O94768 whole entry): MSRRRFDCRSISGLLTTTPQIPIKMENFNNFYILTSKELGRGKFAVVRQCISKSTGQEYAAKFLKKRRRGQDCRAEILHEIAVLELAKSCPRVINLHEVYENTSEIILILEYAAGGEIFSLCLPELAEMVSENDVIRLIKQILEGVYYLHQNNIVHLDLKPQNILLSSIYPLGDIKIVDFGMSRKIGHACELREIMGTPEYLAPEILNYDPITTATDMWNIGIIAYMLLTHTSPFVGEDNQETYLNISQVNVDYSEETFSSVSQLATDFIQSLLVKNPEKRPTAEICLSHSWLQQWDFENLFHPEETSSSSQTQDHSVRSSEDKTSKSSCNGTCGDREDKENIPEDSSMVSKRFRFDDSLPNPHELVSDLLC
experiment: Kinase competition binding assay, DRAK2
cond: Table 1 kinase panel
Entries and their measured IC50 follow.

Some molecules with recorded IC50:
INSERT INTO assay_data (molecule, result) VALUES
  ('COc1cc(-c2cc(=O)c3c(O)c(C/C=C(\C)CCC=C(C)C)c(O)cc3o2)ccc1O [FBL-03A]', '> 20000 nM'),
  ('COc1cc(-c2cc(=O)c3c(O)c(CC=C(C)C)c(O)cc3o2)ccc1O [FBL-03B]', '< 1000 nM'),
  ('COc1cc(-c2cc(=O)c3c(O)cc(O)c(C/C=C(\C)CCC=C(C)C)c3o2)ccc1O [FBL-03C]', '980 nM'),
  ('COc1ccc(-c2cc(=O)c3c(O)c(C/C=C(\C)CCC=C(C)C)c(O)cc3o2)cc1OC [FBL-03D]', '> 30000 nM');

Turning to the following molecule.
# input For the molecule shown here, COc1cc(-c2cc(=O)c3c(O)cc(O)c(CC=C(C)C)c3o2)ccc1O [FBL-03G] , give the reported IC50.
# output > 10000 nM

====

Entries and their measured IC50 follow.
measured-target: FLT3(ITD) (Homo sapiens)
Construct: In general, full-length constructs were used for small, single domain kinases, and catalytic domain constructs for large multi-domain kinases; fused on or other part: T7 phage fusion or DNA tag for qPCR detection (general statement)
Assay type: binding
cond: Table 1 kinase panel; read-out: IC50 (nM) FLT3(ITD)

Some molecules with recorded IC50:
INSERT INTO measurements (molecule, measured_target, result) VALUES
  ('COc1cc(-c2cc(=O)c3c(O)cc(O)c(C/C=C(\C)CCC=C(C)C)c3o2)ccc1O [FBL-03C]', 'FLT3(ITD) (Homo sapiens)', '> 20000 nM'),
  ('COc1cc(-c2cc(=O)c3c(O)cc(O)c(CC=C(C)C)c3o2)ccc1O [FBL-03G]', 'FLT3(ITD) (Homo sapiens)', '< 1000 nM'),
  ('COc1cc(-c2cc(=O)c3c(O)c(CC=C(C)C)c(O)cc3o2)ccc1O [FBL-03B]', 'FLT3(ITD) (Homo sapiens)', '57 nM'),
  ('COc1cc(-c2cc(=O)c3c(O)c(C/C=C(\C)CCC=C(C)C)c(O)cc3o2)ccc1O [FBL-03A]', 'FLT3(ITD) (Homo sapiens)', '> 20000 nM');

# input For the molecule shown here, COc1ccc(-c2cc(=O)c3c(O)c(C/C=C(\C)CCC=C(C)C)c(O)cc3o2)cc1OC [FBL-03D] , give the reported IC50.
# output > 30000 nM

Values were extracted from patent US20180353462A1.
